Source: paper PMC7377239

The following molecules are listed with their measured activity at 10 µM values.
Tested on: iCell cardiomyocytes (human iPSC-derived cardiomyocytes)
Experiment Notes: High-content imaging of cytotoxicity and mitochondrial integrity in iPSC-CMs
Type: cell-based
Condition Set: Homo sapiens, Cardiomyocyte, 24 h, 10.00 µM; 24hrs; 0.00 µM = 100.00; read-out: cm.mito.24hrs
Protocol: Details on cardiomyocyte cell culture are described in detail elsewhere ([Grimm et al. 2015b]; [Sirenko et al. 2013a]). […] Live cell counts for each cell suspension were determined by trypan blue staining and cells were further diluted to provide final cell densities of 2×10^5 viable cells/ml. […] Phenotypic responses were quantitatively assessed using concentration–response modeling as detailed elsewhere ([Sirenko et al. 2017]). […]
Where a name gives a salt, the structure may show the parent alone.
Provide the measurement as a number trailed by its unit.

Example results:
- Clc1cc(Cl)c(-c2cc(Cl)c(Cl)cc2Cl)cc1Cl: 95.2%
- Oc1cc(Cl)c(-c2cc(Cl)ccc2Cl)cc1Cl: 102%

Item Clc1ccc(-c2cc(Cl)c(Cl)c(Cl)c2)cc1Cl has what recorded activity at 10 µM? 88.5%

Next: O=S(=O)(O)Oc1cc(Cl)c(-c2cc(Cl)ccc2Cl)cc1Cl [4-yl PCB 52 sulfate] 89.6%
